Hello, the source for this data is patent US5541343A, in case you need it.

method.notes: Approximate LD50 in rats (tolerability)
condition.set: rat, in vivo, after intravenous route

- cpd.smiles: "N=C(N)c1ccc(-c2ccc(OC[C@@H]3C[C@@H](CC(=O)O)C(=O)N3)cc2)cc1"
  LD50: "> 100 mg/kg"

* * *

Test system: platelet aggregation
method.notes: Antithrombotic effect: collagen-induced platelet aggregation (Born and Cross method) in platelet-rich plasma
Assay type: cell-based
condition.set: Homo sapiens, 10 minutes preincubation at 37° C., 50% change in optical density, read-out: Inhibition of platelet aggregation EC50
Counter-ions that a name gives are not always drawn.
Define the label as True when EC50 is strictly less than 3000 nM and as False in all remaining cases.

- molecule: "N=C(N)c1ccc(-c2ccc(OC[C@@H]3C[C@@H](CC(=O)O)C(=O)N3CCCc3ccccc3)cc2)cc1"
  system: "platelet aggregation"
  label.class: "True"
- molecule: "N=C(N)c1ccc(Nc2ccccc2C(=O)NC[C@@H]2C[C@@H](CC(=O)O)C(=O)N2CCCc2ccccc2)cc1"
  system: "platelet aggregation"
  label.class: "False"
- molecule: "N=C(N)NCCCCCOc1ccc([C@@H]2C[C@@H](CC(=O)O)C(=O)N2CCCc2ccccc2)cc1 (relative stereo)"
  system: "platelet aggregation"
  label.class: "False"
- molecule: "CC(=O)N1C[C@H](CC(=O)O)C[C@H]1COc1ccc(-c2ccc(C(=N)N)cc2)cc1"
  system: "platelet aggregation"
  label.class: "True"
- molecule: "NCCCC(=O)Nc1ccc(OC[C@@H]2C[C@@H](CC(=O)O)C(=O)N2CCCc2ccccc2)cc1"
  system: "platelet aggregation"
  label.class: "False"
- molecule: "Cc1c(OC[C@@H]2C[C@@H](CC(=O)O)C(=O)N2CCCc2ccccc2)ccc(-c2ccc(C(=N)N)cc2)c1C"
  system: "platelet aggregation"
  label.class: "True"
- molecule: "N=C(N)c1ccc(-c2ccc(OC[C@@H]3C[C@@H](CC(=O)O)C(=O)N3)cc2)cc1F"
  system: "platelet aggregation"
  label.class: "True"
- molecule: "NC1CCc2cc(C(=O)NCC[C@@H]3C[C@@H](CC(=O)O)C(=O)N3CCCc3ccccc3)ccc2C1 (stereo partly drawn)"
  system: "platelet aggregation"
  label.class: "False"
- molecule: "N=C(N)c1ccc(-c2ccc(S(=O)(=O)NC[C@@H]3C[C@@H](CC(=O)O)C(=O)N3CCCc3ccccc3)cc2)cc1"
  system: "platelet aggregation"
  label.class: "False"
- molecule: "N=C(N)c1ccc2c(c1)C(=O)c1cc(OC[C@@H]3C[C@@H](CC(=O)O)C(=O)N3CCCc3ccccc3)ccc1-2"
  system: "platelet aggregation"
  label.class: "True"
- molecule: "NCCCCc1ccc(OC[C@@H]2C[C@@H](CC(=O)O)C(=O)N2CCCc2ccccc2)cc1 [23(8), HCl]"
  system: "platelet aggregation"
  label.class: "False"
- molecule: "N=C(N)c1ccc(-c2ccc(OC[C@@H]3C[C@@H](CC(=O)O)C(=O)N3)cc2)cc1"
  system: "platelet aggregation"
  label.class: "True"
- molecule: "CN(C)C(=O)CN1C(=O)[C@H](CC(=O)O)C[C@H]1COc1ccc(-c2ccc(C(=N)N)cc2)cc1"
  system: "platelet aggregation"
  label.class: "True"
- molecule: "COC(=O)C[C@@H]1C[C@@H](COc2ccc(-c3ccc(C(=N)N)cc3)cc2)NC1=O [6(2), HCl]"
  system: "platelet aggregation"
  label.class: "True"
- molecule: "N=C(NO)c1ccc(-c2ccc(OC[C@@H]3C[C@@H](CC(=O)O)C(=O)N3)cc2)cc1"
  system: "platelet aggregation"
  label.class: "False"
